Attribution: patent US20230023559A1

Catalogue of pIC50 values
target: Kv1.3 potassium channel (Homo sapiens); construct: expressed in transfected cells; test: Kv1.3 potassium channel blocker activity, automated whole-cell patch clamp (Patchliner); format: cell-based; conditions: CHO-K1 cells stably expressing Kv1.3; whole cell current inhibition; read-out: Kv1.3_IC50
Sequence (P22001 whole entry): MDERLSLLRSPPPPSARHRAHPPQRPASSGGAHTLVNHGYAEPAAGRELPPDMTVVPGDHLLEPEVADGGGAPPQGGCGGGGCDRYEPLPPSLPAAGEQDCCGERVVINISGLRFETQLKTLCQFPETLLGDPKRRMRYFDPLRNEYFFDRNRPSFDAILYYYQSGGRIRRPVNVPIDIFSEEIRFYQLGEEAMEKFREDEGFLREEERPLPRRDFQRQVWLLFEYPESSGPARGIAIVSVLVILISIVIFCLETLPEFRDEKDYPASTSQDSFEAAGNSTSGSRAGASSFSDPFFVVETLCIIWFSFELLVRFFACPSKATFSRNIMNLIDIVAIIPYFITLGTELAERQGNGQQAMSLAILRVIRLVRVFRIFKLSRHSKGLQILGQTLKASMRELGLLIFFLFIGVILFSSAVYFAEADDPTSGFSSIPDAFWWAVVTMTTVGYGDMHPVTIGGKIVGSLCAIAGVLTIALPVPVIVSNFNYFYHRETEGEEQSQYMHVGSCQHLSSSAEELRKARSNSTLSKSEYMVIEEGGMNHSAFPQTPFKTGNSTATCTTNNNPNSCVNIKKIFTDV
pIC50: −log10 of the molar value.

Reference set, count: 3
Incoming: Requested read-out: pIC50. Entry: CN(C)C(=O)N1CCC(C(N)c2cc(Cl)c(Cl)cc2O)CC1 (stereo not shown)
Outgoing: > 5.00

Incoming: And the next one, CC(=O)NC(c1cc(Cl)c(Cl)cc1O)C1CCN(C(=O)[C@@H]2CCNC2)CC1 (stereo partly shown) ?
Outgoing: > 5.00

Incoming: And the next one, `Cc1cc(O)c([C@H](N)C2CCN(C(=O)c3ccc4nncn4c3)CC2)cc1Cl` ?
Outgoing: > 6.30

Continuing:
Incoming: Requested read-out: pIC50. Entry: NC(c1cc(Cl)c(Cl)cc1O)C1CCN(C(=O)C(F)(F)F)CC1 (stereo not shown)
Outgoing: > 5.00

Incoming: And the next one, `Cc1cc(O)c([C@H](N)C2CCN(C(=O)[C@@H]3CCNC3)CC2)cc1Cl` ?
Outgoing: > 6.30
